- system tested: T1, human IL-1Rrp2 (IL-1R-related protein 2) (human, UniProt Q9HB29 20-575)
- T1 sequence (looked up): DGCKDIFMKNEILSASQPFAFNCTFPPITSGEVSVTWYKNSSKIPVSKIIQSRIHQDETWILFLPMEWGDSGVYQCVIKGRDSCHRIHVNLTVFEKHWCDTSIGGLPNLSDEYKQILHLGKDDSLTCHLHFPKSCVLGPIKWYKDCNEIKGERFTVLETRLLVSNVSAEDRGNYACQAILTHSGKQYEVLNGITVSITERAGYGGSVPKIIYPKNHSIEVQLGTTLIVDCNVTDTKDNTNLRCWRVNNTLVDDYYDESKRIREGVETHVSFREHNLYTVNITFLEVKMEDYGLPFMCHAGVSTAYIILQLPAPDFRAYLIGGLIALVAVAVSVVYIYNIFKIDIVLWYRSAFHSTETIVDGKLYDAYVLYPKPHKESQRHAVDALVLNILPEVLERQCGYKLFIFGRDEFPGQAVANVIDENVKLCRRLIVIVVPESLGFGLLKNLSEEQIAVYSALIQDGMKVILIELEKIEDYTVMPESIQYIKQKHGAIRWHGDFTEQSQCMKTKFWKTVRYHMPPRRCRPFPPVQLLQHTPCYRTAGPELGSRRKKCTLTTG
- experiment notes: cell-based or functional assay
value kind: EC50, IL-8 ELISA of supernatants of Jurkat T-REx cells expressing human IL-1Rrp2 (µg/mL)
# number only, unit µg/mL dropped from output

Form field EC50, IL-8 ELISA of supernatants of Jurkat T-REx cells expressing human IL-1Rrp2, entry HuIL-1F8R5 (ligand) REAAPKSYAIRDSRQMVWVLSGNSLIAAPLSRSIKPVTLHLIACRDTEFSDKEKGNMVYLGIKGKDLCLFCAEIQGKPTLQLKEKNIMDLYVEKKAQKPFLFFHNKEGSTSVFQSVSYPGWFIATSTTSGQPIFLTKERGITNNTNFYLDSVE : 0.000129

Attention now turns to another entry.
Form field EC50, IL-8 ELISA of supernatants of Jurkat T-REx cells expressing human IL-1Rrp2, entry HuIL-1F6I7/FpH (ligand) MIDTPQRGSIQDINHRVWVLQDQTLIAVPRKDRMSPVTIALISCRHVETLEKDRGNPIYLGLNGLNLCLMCAKVGDQPTLQLKEKDIMDLYNQPEPVKSFLFYHSQSGRNSTFESVAFPGWFIAVSSEGGCPLILTQELGKANTTDFGLTMLFDYKDDDDKHHHHHH : 0.06
